target: Ribosomal protein S6 kinase alpha-3 (Homo sapiens); test: Inhibition of His-tagged recombinant human RSK2 expressed in baculovirus expression system after 1 hr by Z'-LYTE assay
Sequence (P51812 whole entry): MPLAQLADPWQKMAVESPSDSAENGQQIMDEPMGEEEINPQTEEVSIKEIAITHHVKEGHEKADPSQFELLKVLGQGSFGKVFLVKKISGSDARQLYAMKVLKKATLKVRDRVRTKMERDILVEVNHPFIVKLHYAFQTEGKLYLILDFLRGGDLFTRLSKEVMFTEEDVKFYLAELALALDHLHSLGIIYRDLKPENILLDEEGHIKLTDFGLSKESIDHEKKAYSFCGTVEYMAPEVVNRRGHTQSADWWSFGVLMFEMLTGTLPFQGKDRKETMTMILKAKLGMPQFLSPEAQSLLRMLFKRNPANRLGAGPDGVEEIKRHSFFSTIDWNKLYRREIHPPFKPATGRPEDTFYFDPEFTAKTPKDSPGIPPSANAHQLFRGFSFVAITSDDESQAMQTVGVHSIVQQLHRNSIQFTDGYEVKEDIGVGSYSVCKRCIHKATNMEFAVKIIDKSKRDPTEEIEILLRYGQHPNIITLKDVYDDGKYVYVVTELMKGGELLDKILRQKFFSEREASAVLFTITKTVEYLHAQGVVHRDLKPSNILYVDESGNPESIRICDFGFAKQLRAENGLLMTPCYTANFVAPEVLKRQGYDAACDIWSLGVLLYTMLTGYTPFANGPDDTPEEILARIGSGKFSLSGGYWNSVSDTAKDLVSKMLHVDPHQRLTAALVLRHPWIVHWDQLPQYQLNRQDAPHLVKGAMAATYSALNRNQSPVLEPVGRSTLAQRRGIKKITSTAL
Exercise: for every item that follows, state its recorded pIC50.
The meaning of pIC50 here: minus log10 of the concentration in molar units.

May I ask what pIC50 has been recorded for Nc1ncnc2c1ncn2[C@@H]1O[C@H](COC(=O)c2ccc[nH]2)[C@@H](O)[C@H]1O ?
6.10

May I ask what pIC50 has been recorded for O=C(OC[C@H]1O[C@@H](n2cnc3c(=O)[nH]cnc32)[C@H](O)[C@@H]1O)c1ccc[nH]1 ?
6.64

May I ask what pIC50 has been recorded for O=C(OC[C@H]1O[C@@H](n2cnc3c(=O)[nH]cnc32)[C@H](O)[C@@H]1O)c1cc[nH]c1 ?
6.19

May I ask what pIC50 has been recorded for Nc1ncnc2c1ncn2[C@@H]1O[C@H](COC(=O)c2cc[nH]c2)[C@@H](O)[C@H]1O ?
6.01

May I ask what pIC50 has been recorded for Nc1nc2c(ncn2[C@@H]2O[C@H](COC(=O)c3cc[nH]c3)[C@@H](O)[C@H]2O)c(=O)[nH]1 ?
6.17

May I ask what pIC50 has been recorded for Nc1nc2c(ncn2[C@@H]2O[C@H](COC(=O)c3ccc[nH]3)[C@@H](O)[C@H]2O)c(=O)[nH]1 ?
6.18

* * *

target: Mitogen-activated protein kinase 14 (Homo sapiens, UniProt Q16539); assay: Inhibition of human MAPK14 expressed in Escherichia coli at 10 uM after 1 hr by Z'-LYTE assay relative to control
Sequence (Q16539 whole entry): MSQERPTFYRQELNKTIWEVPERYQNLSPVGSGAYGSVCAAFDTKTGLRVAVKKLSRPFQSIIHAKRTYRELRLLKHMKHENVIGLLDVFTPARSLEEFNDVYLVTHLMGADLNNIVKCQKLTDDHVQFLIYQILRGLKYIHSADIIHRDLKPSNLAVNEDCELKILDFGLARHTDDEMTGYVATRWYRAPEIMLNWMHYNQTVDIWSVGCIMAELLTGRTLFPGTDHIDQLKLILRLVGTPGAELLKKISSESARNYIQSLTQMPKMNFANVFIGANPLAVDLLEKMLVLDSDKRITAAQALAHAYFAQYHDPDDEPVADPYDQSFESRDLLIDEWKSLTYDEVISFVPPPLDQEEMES
Exercise: for every item that follows, state its recorded inhibition.
Quick reminder: number only, in %, skip the unit.

May I ask what inhibition has been recorded for Nc1ncnc2c1ncn2[C@@H]1O[C@H](COC(=O)c2ccc[nH]2)[C@@H](O)[C@H]1O ?
95

May I ask what inhibition has been recorded for Nc1ncnc2c1ncn2[C@@H]1O[C@H](COC(=O)c2cc[nH]c2)[C@@H](O)[C@H]1O ?
95

May I ask what inhibition has been recorded for O=C(OC[C@H]1O[C@@H](n2cnc3c(=O)[nH]cnc32)[C@H](O)[C@@H]1O)c1ccc[nH]1 ?
95

May I ask what inhibition has been recorded for Nc1nc2c(ncn2[C@@H]2O[C@H](COC(=O)c3cc[nH]c3)[C@@H](O)[C@H]2O)c(=O)[nH]1 ?
84

May I ask what inhibition has been recorded for O=C(OC[C@H]1O[C@@H](n2cnc3c(=O)[nH]cnc32)[C@H](O)[C@@H]1O)c1cc[nH]c1 ?
95

May I ask what inhibition has been recorded for Nc1nc2c(ncn2[C@@H]2O[C@H](COC(=O)c3ccc[nH]3)[C@@H](O)[C@H]2O)c(=O)[nH]1 ?
93

* * *

molecular target: Mitogen-activated protein kinase 14 (Homo sapiens, UniProt Q16539); assay: Inhibition of human MAPK14 expressed in Escherichia coli after 1 hr by Z'-LYTE assay
Exercise: for every item that follows, state its recorded pIC50.
The meaning of pIC50 here: minus log10 of the concentration in molar units.

May I ask what pIC50 has been recorded for Nc1nc2c(ncn2[C@@H]2O[C@H](COC(=O)c3ccc[nH]3)[C@@H](O)[C@H]2O)c(=O)[nH]1 ?
6.02

May I ask what pIC50 has been recorded for O=C(OC[C@H]1O[C@@H](n2cnc3c(=O)[nH]cnc32)[C@H](O)[C@@H]1O)c1ccc[nH]1 ?
5.88

May I ask what pIC50 has been recorded for Nc1ncnc2c1ncn2[C@@H]1O[C@H](COC(=O)c2ccc[nH]2)[C@@H](O)[C@H]1O ?
6.00

May I ask what pIC50 has been recorded for Nc1nc2c(ncn2[C@@H]2O[C@H](COC(=O)c3cc[nH]c3)[C@@H](O)[C@H]2O)c(=O)[nH]1 ?
6.00

May I ask what pIC50 has been recorded for Nc1ncnc2c1ncn2[C@@H]1O[C@H](COC(=O)c2cc[nH]c2)[C@@H](O)[C@H]1O ?
5.77

May I ask what pIC50 has been recorded for O=C(OC[C@H]1O[C@@H](n2cnc3c(=O)[nH]cnc32)[C@H](O)[C@@H]1O)c1cc[nH]c1 ?
6.06
